# System: Colletotrichum orbiculare
# protocol.description: Test F: cucumber Colletotrichum anthracnose, test suspension sprayed on cucumber seedlings, disease rating
# Format: in vivo
# condition: 200 ppm test suspension
Reported Test F disease control rating by item:
Number in %, nothing else.

compound	readout.type	val
CC(CN(C)C)Nc1nccc(-c2c(-c3ccc(F)cc3)nn3c2CCCC3)n1 (stereo not shown)	Test F disease control rating	0
CC(CO)Nc1nccc(-c2c(-c3ccc(F)cc3)nn3c2CCCC3)n1 (stereo not shown)	Test F disease control rating	99

Notebook: CC(CO)Nc1nccc(-c2c(-c3ccc(F)cc3)nn3c2CCCC3)n1.Cl (stereo not shown) , Test F disease control rating read as 0

Notebook: `CCCNc1nccc(-c2c(-c3ccc(F)cc3)nn3c2CCCC3)n1` , Test F disease control rating read as 83

Notebook: `CC(C)Nc1nccc(-c2c(-c3ccc(F)cc3)nn3c2CNCC3)n1.Cl` , Test F disease control rating read as 98

###

Reported Test E disease control rating by item:
# Test system: Septoria tritici
# protocol.description: Test E: wheat leaf blotch, test suspension sprayed on wheat seedlings, disease rating;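 further: 200 ppm unless marked * meaning 40 ppm or ** meaning 10 ppm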
# Format: in vivo
# condition: 200 ppm test suspension
Number in %, nothing else.

// worked examples, Test E disease control rating included
molecule	val
CC(CO)Nc1nccc(-c2c(-c3ccc(F)cc3F)nn3c2COCC3)n1 (stereo not drawn)	86
CC(CO)Nc1nccc(-c2c(-c3ccc(F)cc3)nn3c2Cc2ccccc2C3)n1 (stereo not drawn)	49
CC(C)Nc1nccc(-c2c(-c3ccc(Cl)cc3)nn3c2CCCC3)n1	100

Notebook: CC(COC(=O)CCC(=O)O)Nc1nccc(-c2c(-c3ccc(F)cc3)nn3c2CCCC3)n1 (stereo not drawn) , Test E disease control rating read as 72

Notebook: CCC(C)Nc1nccc(-c2c(-c3cccc(F)c3)nn3c2CCC3)n1 (stereo not drawn) , Test E disease control rating read as 94

Notebook: `CNc1nccc(-c2c(-c3ccccc3)nn3c2CCCC3)n1` , Test E disease control rating read as 100

###

# System: Puccinia recondite f sp. tritici
# protocol.description: Test B: wheat leaf rust, test suspension sprayed on wheat seedlings, disease rating;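 further: 200 ppm unless marked * meaning 40 ppm or ** meaning 10 ppm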
# Assay type: in vivo
# condition: 200 ppm test suspension
Criterion: Test B disease control rating meeting or surpassing 90%. Met: label 1. Not met: label 0.

compound	label.value
COCC(C)Nc1nccc(-c2c(-c3ccccc3F)nn3c2CCC3)n1 (stereo not drawn) [compound 96]	label 0
CNc1nccc(-c2c(-c3ccc(F)cc3)nn3c2CCC3)n1 [compound 90]	label 1
CCCNc1nccc(-c2c(-c3ccc(F)cc3)nn3c2CCCC3)n1 [compound 11]	label 1
C[Si](C)(C)CNc1nccc(-c2c(-c3ccc(F)cc3)nn3c2CCCC3)n1 [compound 35]	label 1
Fc1cc(F)cc(-c2nn3c(c2-c2ccnc(NC4CC4)n2)CCC3)c1 [compound 104]	label 0

Data request: Please tell me: is the compound Fc1ccc(-c2nn3c(c2-c2ccnc(NC4CCOCC4)n2)CCCC3)cc1 [compound 49] at or over 90% in terms of Test B disease control rating?
Data returned: label 1

###

Reported Test J disease control rating by item:
# System: Phytophthora infestans
# protocol.description: whole plant or invertebrate
# Format: in vivo
# condition: 200 ppm test suspension
Number in %, nothing else.

molecule	subject.of.test	readout.type	units	val
Fc1ccc(-c2nn3c(c2-c2ccnc(Oc4ccc(-n5cccc5)cc4)n2)CCCC3)cc1 [Compound 106]	Phytophthora infestans	Test J disease control rating	%	9

Notebook: Fc1ccccc1-c1nn2c(c1-c1ccnc(NC3CC3)n1)CCC2 [compound 99] , Test J disease control rating read as 99

Notebook: CC(COC(=O)c1cccnc1)Nc1nccc(-c2c(-c3ccc(F)cc3)nn3c2CCCC3)n1 (stereo not drawn) [compound 68] , Test J disease control rating read as 95

Notebook: c1cc(-c2c(-c3ccsc3)nn3c2CCCC3)nc(NC2CC2)n1 [compound 61] , Test J disease control rating read as 97

Notebook: Fc1ccc(-c2nn3c(c2-c2ccnc(NCc4cccs4)n2)CCCC3)cc1 [compound 39] , Test J disease control rating read as 0

Notebook: CCNc1nccc(-c2c(-c3ccc(F)cc3)nn3c2CCCC3)n1 [compound 18] , Test J disease control rating read as 99

Notebook: CC(C)Nc1nccc(-c2c(-c3ccsc3)nn3c2CCCC3)n1 [compound 43] , Test J disease control rating read as 97

Notebook: Cc1cc(-c2nn3c(c2-c2ccnc(NC4CC4)n2)COCC3)ccc1F [compound 119] , Test J disease control rating read as 93

Notebook: Cc1ccccc1-c1nn2c(c1-c1ccnc(NC(C)C)n1)CCCC2 [compound 45] , Test J disease control rating read as 76

###

Reported Test J disease control rating by item:
# Test system: Phytophthora infestans
# protocol.description: whole plant or invertebrate
# Type: in vivo
# condition: 200 ppm test suspension
Number in %, nothing else.

// worked examples, Test J disease control rating included
compound	subject.of.test	Test J disease control rating, %
CC(CO)Nc1nccc(-c2c(-c3ccc(F)cc3)nn3c2Cc2ccccc2C3)n1 (stereo not drawn)	Phytophthora infestans	26
CC(CO)Nc1nccc(-c2c(-c3ccc(F)cc3)nn3c2CCCC3)n1 (stereo not drawn)	Phytophthora infestans	99

Shift focus to the following entry.
Notebook: `CNc1nccc(-c2c(-c3ccc(F)cc3)nn3c2CCC3)n1` , Test J disease control rating read as 99

###

# Test system: Puccinia recondite f sp. tritici
# protocol.description: Test B: wheat leaf rust, test suspension sprayed on wheat seedlings, disease rating;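 further: 200 ppm unless marked * meaning 40 ppm or ** meaning 10 ppm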
# Type: in vivo
# condition: 40 ppm test suspension (*)
Marks after values point to notes of the source that are not given here.
Reported Test B disease control rating by item:

Notebook: C[Si](C)(C)CNc1nccc(-c2c(-c3ccccc3)nn3c2CCCC3)n1 [compound 55] , Test B disease control rating read as 91* %

Notebook: CC(=O)N1CCCc2c(-c3ccnc(NC4CCOCC4)n3)c(-c3ccc(F)cc3)nn21 [Compound 139] , Test B disease control rating read as 90* %

Notebook: C#CCNc1nccc(-c2c(-c3ccccc3)nn3c2CCCC3)n1 [compound 59] , Test B disease control rating read as 92* %

###

# Test system: Septoria tritici
# protocol.description: Test E: wheat leaf blotch, test suspension sprayed on wheat seedlings, disease rating;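 further: 200 ppm unless marked * meaning 40 ppm or ** meaning 10 ppm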
# Assay type: in vivo
# condition: 200 ppm test suspension
readout.type: Test E disease control rating (%)
Number in %, nothing else.

compound	subject.of.test	readout.type	val
CCNc1nccc(-c2c(-c3ccccc3)nn3c2CCCC3)n1	Septoria tritici	Test E disease control rating	100
CN(C)Nc1nccc(-c2c(-c3ccc(F)cc3)nn3c2CCCC3)n1	Septoria tritici	Test E disease control rating	98
CCNc1nccc(-c2c(-c3cccc(C)c3)nn3c2CCCC3)n1	Septoria tritici	Test E disease control rating	95
Cc1cccc(-c2nn3c(c2-c2ccnc(NC4CC4)n2)CCCC3)c1	Septoria tritici	Test E disease control rating	100
CCCNc1nccc(-c2c(-c3ccccc3)nn3c2COCC3)n1	Septoria tritici	Test E disease control rating	100

Notebook: `CC(C)Nc1nccc(-c2c(-c3ccsc3)nn3c2COCC3)n1` , Test E disease control rating read as 82

Notebook: `CC(C)Nc1nccc(-c2c(-c3ccccc3F)nn3c2CCCC3)n1` , Test E disease control rating read as 96

Notebook: `CC(C)(C)CNc1nccc(-c2c(-c3ccc(F)cc3)nn3c2CCCC3)n1` , Test E disease control rating read as 72

###

Reported Test A disease control rating by item:
# System: Erysiphe graminis f. sp. tritici
# protocol.description: Test A: wheat powdery mildew, test suspension sprayed on wheat seedlings, disease rating
# Type: in vivo
# condition: 40 ppm test suspension (*)
Marks after values point to notes of the source that are not given here.

compound	subject.of.test	val
C#CCNc1nccc(-c2c(-c3ccc(F)cc3)nn3c2CCCC3)n1	Erysiphe graminis f. sp. tritici	0* %
COCC(C)Nc1nccc(-c2c(-c3ccccc3)nn3c2CCCC3)n1 (stereo not drawn)	Erysiphe graminis f. sp. tritici	0* %
Cc1cc(-c2nn3c(c2-c2ccnc(NC[Si](C)(C)C)n2)CCCC3)ccc1F	Erysiphe graminis f. sp. tritici	0* %
CC(C)N(O)c1nccc(-c2c(-c3ccc(F)cc3)nn3c2CS(=O)(=O)CC3)n1	Erysiphe graminis f. sp. tritici	0* %

Notebook: `C[Si](C)(C)CNc1nccc(-c2c(-c3ccccc3)nn3c2CCCC3)n1` , Test A disease control rating read as 0* %

Notebook: `C#CCNc1nccc(-c2c(-c3ccccc3)nn3c2CCCC3)n1` , Test A disease control rating read as 0* %

Notebook: `C[C@@H](CO)Nc1nccc(-c2c(-c3ccccc3)nn3c2CCCC3)n1` , Test A disease control rating read as 0* %

Notebook: `Cc1cc(-c2nn3c(c2-c2ccnc(NC4CC4)n2)CCCC3)ccc1F` , Test A disease control rating read as 86* %

Notebook: COCC(C)Nc1nccc(-c2c(-c3ccc(F)c(C)c3)nn3c2CCCC3)n1 (stereo not drawn) , Test A disease control rating read as 78* %

###

# Tested on: Phytophthora infestans
# protocol.description: whole plant or invertebrate
# Format: in vivo
# condition: 200 ppm test suspension
readout.type: Test J disease control rating (%)
Number in %, nothing else.

// worked examples, Test J disease control rating included
molecule	val
COCC(C)Nc1nccc(-c2c(-c3ccc(F)cc3)nn3c2CCC3)n1 (stereo not drawn)	93
CC(C)Nc1nccc(-c2c(-c3ccsc3)nn3c2COCC3)n1	80
Fc1ccc(-c2nn3c(c2-c2ccnc(NC4CC4)n2)COCC3)c(F)c1	87
CC(CO)Nc1nccc(-c2c(-c3ccsc3)nn3c2CCCC3)n1 (stereo not drawn)	99
Nc1nccc(-c2c(-c3ccc(F)cc3)nn3c2CCCC3)n1	64
Fc1ccc(-c2nn3c(c2-c2ccnc(NC4CC4)n2)CCC3)cc1	99
C=CCNc1nccc(-c2c(-c3ccc(F)cc3)nn3c2CCCC3)n1	97
Clc1ccc(-c2nn3c(c2-c2ccnc(NC4CC4)n2)CCCC3)cc1	83

Notebook: CC(CO)Nc1nccc(-c2c(-c3ccccc3F)nn3c2CCCC3)n1 (stereo not drawn) , Test J disease control rating read as 95

Notebook: `CCCNc1nccc(-c2c(-c3ccc(F)cc3)nn3c2CCCC3)n1` , Test J disease control rating read as 100

Notebook: CC(CS(=O)(=O)[O-])Nc1nccc(-c2c(-c3ccc(F)cc3)nn3c2CCCC3)n1.[Na+] (stereo not drawn) , Test J disease control rating read as 0

Notebook: CC1CN1c1nccc(-c2c(-c3ccc(F)cc3)nn3c2CCCC3)n1 (stereo not drawn) , Test J disease control rating read as 99

Notebook: CCC(C)Nc1nccc(-c2c(-c3ccc(F)cc3)nn3c2CCCC3)n1 (stereo not drawn) [compound 19] , Test J disease control rating read as 31

Notebook: `OCCNc1nccc(-c2c(-c3ccc(F)cc3)nn3c2CCCC3)n1` , Test J disease control rating read as 83

Notebook: CC(=O)OCC(C)Nc1nccc(-c2c(-c3ccc(F)cc3)nn3c2CCCC3)n1 (stereo not drawn) , Test J disease control rating read as 99

Notebook: `NCCNc1nccc(-c2c(-c3ccc(F)cc3)nn3c2CCCC3)n1` , Test J disease control rating read as 91

Notebook: COCC(C)Nc1nccc(-c2c(-c3ccc(F)cc3)nn3c2CCCC3)n1 (stereo not drawn) , Test J disease control rating read as 100

Notebook: `Fc1cccc(-c2nn3c(c2-c2ccnc(NC4CC4)n2)CCC3)c1` , Test J disease control rating read as 99
